# MEASURED_ON: G11
# PROCEDURE_DETAILS: ITC
Where no end group is shown, it is not given here. [ ]: non-standard residue; d: D form. pS = N[C@@H](COP(=O)(O)O)C(=O)O

BINDER	UNITS_SYMBOL	Kd
RPHFPQF[pS]YSAS [phosphorylated Akt peptide]	nM	18.1

Entry source: paper PMC11681868
